assay-context: in n-propanol, 313.4 K
assay-endpoint: solubility (mole fraction)
Keep it simple and answer with nothing but the number.

Task: Fill in: solubility (mole fraction) of CCCCCCCCCCCC(=O)O is ___
Output: 0.818

====

assay-context: in n-propanol, 295.1 K
assay-endpoint: solubility (mole fraction)

Task: Fill in: solubility (mole fraction) of CCCCCCCCCCCC(=O)O is ___
Output: 0.225

====

assay-context: in trichloroethylene, 312.5 K
assay-endpoint: solubility (mole fraction)
Keep it simple and answer with nothing but the number.

Task: Fill in: solubility (mole fraction) of CCCCCCCCCCCC(=O)O is ___
Output: 0.806

====

assay-context: in trichloroethylene, 298.2 K
assay-endpoint: solubility (mole fraction)
Keep it simple and answer with nothing but the number.

Task: Fill in: solubility (mole fraction) of CCCCCCCCCCCC(=O)O is ___
Output: 0.389

====

assay-context: in trichloroethylene, 308.6 K
assay-endpoint: solubility (mole fraction)
Keep it simple and answer with nothing but the number.

Task: Fill in: solubility (mole fraction) of CCCCCCCCCCCC(=O)O is ___
Output: 0.666

====

assay-context: in acetone, 313 K
assay-endpoint: solubility (mole fraction)
Keep it simple and answer with nothing but the number.

Task: Fill in: solubility (mole fraction) of CCCCCCCCCCCC(=O)O is ___
Output: 0.795

The origin of these recorded values is BigSolDB 2.1.
